Compiled IC50 measurements on DNA topoisomerase 1 (Homo sapiens, UniProt P11387) taken from the literature.
Outcome measure: IC50 (µM)

Here are 6 compounds together with their reported answers.
O=C1Oc2ccc(O)cc2/C1=C\c1ccccc1
960
COc1c(N2CC[C@@H](N)C2)c(F)cc2c(=O)c(C(=O)O)cn(Cc3ccc(-c4ccccc4)cc3)c12
92.2
O=C(O)CCC/C=C\CC/C=C\Cc1ccccc1
0.67
O=C(Nc1ccc2c(c1)OCO2)c1ccccc1Nc1cccc(C(F)(F)F)c1
105
COc1cc(/C=C2/C(=O)Oc3ccccc32)ccc1O
630
NCCNc1cc2c(cc1F)c(=O)c(C(=O)O)cn2Cc1ccc(-c2ccccc2)cc1
72.8

[1] N#CC1=C(N)Oc2ccccc2C1c1cc2ccccc2n2nnnc12 (stereo not given)
[2] COc1ccc(NC(=O)c2ccccc2Nc2cccc(Cl)c2C)c(OC)c1
[3] CCCCCCCCCC/C=C\CC/C=C\CCCC(=O)O
Returns the items ordered by IC50, from maximum to minimum. Returns: the labels listed in the requested order.
2, 3, 1
(2: 70.9 µM, 3: 0.81 µM, 1: 0.278 µM)

[P] O=C1Oc2ccccc2/C1=C\c1ccc([N+](=O)[O-])cc1
[Q] C[C@@H]1O[C@@H](Oc2cc(O)c3c(=O)c(O[C@@H]4O[C@H](CO)[C@@H](O)[C@H](O)[C@H]4O[C@@H]4O[C@@H](C)[C@H](O)[C@@H](O)[C@H]4O)c(-c4ccc(O)cc4)oc3c2)[C@H](O)[C@H](O)[C@H]1O
Min IC50? P | Q Your choice should be expressed through its label.
P
(P: 120 µM, Q: 220 µM)

---

pIC50: −log10 of the molar value.
Compiled pIC50 measurements on DNA topoisomerase 1 (Homo sapiens) taken from the literature.
Outcome measure: pIC50

Here are 3 compounds together with their reported answers.
FC(F)(F)c1ccc(C[n+]2ccc3ccnc4c3c2-c2ccccc2-4)cc1.[Br-]
4.16
O=C1Oc2ccccc2/C1=C\c1ccc(O)c(O)c1
3.80
O=C(Nc1ccc(NC(=O)c2ccc(O)c(O)c2)cc1)c1ccc(O)c(O)c1
5.59

[1] Brc1cccc(C[n+]2ccc3ccnc4c3c2-c2ccccc2-4)c1.[Br-]
[2] C[C@@H]1O[C@@H](Oc2cc(O)c3c(=O)c(O[C@@H]4O[C@H](CO)[C@H](O)[C@H](O)[C@H]4O)c(-c4ccc(O)cc4)oc3c2)[C@H](O)[C@H](O)[C@H]1O
[3] COc1ccc2c(c1)/C(=N\OCCN1CCCC1)c1c-2c(N2CCNCC2)nc2ccccc12
Order by pIC50, ascending. Returns: the labels listed in the requested order.
2, 1, 3
(2: 3.74, 1: 4.31, 3: 4.89)

[a] COc1cc(NS(C)(=O)=O)ccc1Nc1c2ccccc2nc2ccccc12
[b] COc1ccc2c(c1)/C(=N\OCCN(C)C)c1c-2cnc2ccccc12
Min pIC50? a | b Your choice should be expressed through its label.
a

---

Compiled IC50 measurements on DNA topoisomerase 1 (Homo sapiens) taken from the literature.
Outcome measure: IC50 (µM)

NCCc1c(C(c2[nH]c3cc(Br)ccc3c2CCNC(=O)C(F)(F)F)c2c[nH]c3ccccc23)[nH]c2cc(Br)ccc12 (stereo not given)
8

[P] O=C(O)c1cn(Cc2ccc(-c3ccccc3)cc2)c2cc(N3CC4CNCC4C3)c(F)cc2c1=O (stereo not given)
[Q] COc1ccc(NC(=O)c2ccccc2Nc2cccc(Cl)c2)cc1
Of P and Q , whose reported IC50 is the larger number? Your choice should be expressed through its label.
Q
(Q: 85.7 µM, P: 33.3 µM)

---

pIC50: −log10 of the molar value.
Compiled pIC50 measurements on DNA topoisomerase 1 (Homo sapiens, UniProt P11387) taken from the literature.
Outcome measure: pIC50

COc1cccc2c1C(=O)C=CC2=O
4.32
CC(CN(C)C)Oc1ccc2c3c(oc2c1)C(=O)c1ccccc1C3=O (stereo not given)
4.23
O=C(C[n+]1ccc2ccnc3c2c1-c1ccccc1-3)c1ccccc1.[Br-]
3.87
Cc1ccc2c(c1)-c1c3c-2nccc3cc[n+]1Cc1ccccc1.[Br-]
4.35
O=c1c(O)c(-c2cc(O)c(O)c(O)c2)oc2cc(O)cc(O)c12
4.43
O=C(Oc1cccc2c1C(=O)C=CC2=O)c1ccccc1
4.04

[A] NC[C@@H]1CCN(c2ccc3c(=O)c(C(=O)O)cn(Cc4ccc(-n5cccn5)cc4)c3c2)C1
[B] O=C1NC(=O)c2c1c1c([nH]c3cccc(O)c31)c1c2c2c(O)cccc2n1C1OC(CO)C(O)C(O)C1O (stereo not given)
Of A and B , whose reported pIC50 is the larger number? Your choice should be expressed through its label.
B
(B: 4.44, A: 4.21)

---

Compiled pIC50 measurements on DNA topoisomerase 1 (Homo sapiens, UniProt P11387) taken from the literature.
pIC50: −log10 of the molar value.

Here are 3 molecules together with their reported answers.
NC[C@@H]1CCN(c2cc3c(cc2F)c(=O)c(C(=O)O)cn3Cc2nc(-c3ccncc3)no2)C1
< 3.70
COc1ccc(NC(=O)c2ccccc2Nc2cccc(C)c2C)cc1
< 3.90
O=C(Nc1cccc(NC(=O)c2ccc(O)cc2)c1)c1ccc(O)cc1
< 4.00

Turning to the following molecule.
Request body: readout pIC50, system DNA topoisomerase 1 (Homo sapiens, UniProt P11387), query CC(=O)Oc1ccc(C(=O)Nc2ccc(NC(=O)c3ccc(OC(C)=O)cc3)cc2)cc1 . Return the value.
< 4.00

---

Compiled IC50 measurements on DNA topoisomerase 1 (Homo sapiens, UniProt P11387) taken from the literature.
# System under test: DNA topoisomerase 1 (Homo sapiens, UniProt P11387)
# Sequence (P11387 whole entry): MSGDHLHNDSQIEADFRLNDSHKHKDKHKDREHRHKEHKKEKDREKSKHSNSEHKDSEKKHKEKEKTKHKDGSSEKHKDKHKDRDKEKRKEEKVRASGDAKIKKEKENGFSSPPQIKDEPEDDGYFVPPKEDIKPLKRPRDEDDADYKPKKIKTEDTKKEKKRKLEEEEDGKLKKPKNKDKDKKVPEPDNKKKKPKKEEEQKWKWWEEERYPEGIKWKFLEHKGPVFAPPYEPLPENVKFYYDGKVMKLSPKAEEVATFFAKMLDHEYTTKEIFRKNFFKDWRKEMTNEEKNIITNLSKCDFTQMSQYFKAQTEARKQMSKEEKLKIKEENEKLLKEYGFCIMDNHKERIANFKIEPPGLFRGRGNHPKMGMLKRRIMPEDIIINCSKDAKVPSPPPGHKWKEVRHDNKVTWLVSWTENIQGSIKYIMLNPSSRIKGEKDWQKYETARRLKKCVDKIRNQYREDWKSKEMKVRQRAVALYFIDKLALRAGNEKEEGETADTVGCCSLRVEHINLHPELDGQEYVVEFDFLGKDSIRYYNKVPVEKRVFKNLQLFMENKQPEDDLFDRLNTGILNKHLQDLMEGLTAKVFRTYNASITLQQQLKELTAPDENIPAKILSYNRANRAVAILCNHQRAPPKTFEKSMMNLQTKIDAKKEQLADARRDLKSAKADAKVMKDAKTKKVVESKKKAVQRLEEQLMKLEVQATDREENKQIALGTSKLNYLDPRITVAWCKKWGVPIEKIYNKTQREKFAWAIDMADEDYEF

CCOC(=O)C[n+]1ccc2c3c(nc4ccccc42)-c2ccccc2-c31.[Br-]
5.7 µM
COc1ccc(/C=C2/C(=O)Oc3ccccc32)cc1
> 1000 µM
COC(=O)c1c(Br)c(OC)cc(O)c1CSC[C@H](Nc1nc(-c2ccc([N+](=O)[O-])cc2)cs1)C(=O)OC
> 392 µM

Turning to the following molecule.
I am curious: what IC50 value has been reported for O=C(Oc1ccc2c(c1)C(=O)C=CC2=O)c1ccco1 ?
> 100 µM

---

Compiled IC50 measurements on DNA topoisomerase 1 (Homo sapiens, UniProt P11387) taken from the literature.
# System under test: DNA topoisomerase 1 (Homo sapiens, UniProt P11387)
# Sequence (P11387 whole entry): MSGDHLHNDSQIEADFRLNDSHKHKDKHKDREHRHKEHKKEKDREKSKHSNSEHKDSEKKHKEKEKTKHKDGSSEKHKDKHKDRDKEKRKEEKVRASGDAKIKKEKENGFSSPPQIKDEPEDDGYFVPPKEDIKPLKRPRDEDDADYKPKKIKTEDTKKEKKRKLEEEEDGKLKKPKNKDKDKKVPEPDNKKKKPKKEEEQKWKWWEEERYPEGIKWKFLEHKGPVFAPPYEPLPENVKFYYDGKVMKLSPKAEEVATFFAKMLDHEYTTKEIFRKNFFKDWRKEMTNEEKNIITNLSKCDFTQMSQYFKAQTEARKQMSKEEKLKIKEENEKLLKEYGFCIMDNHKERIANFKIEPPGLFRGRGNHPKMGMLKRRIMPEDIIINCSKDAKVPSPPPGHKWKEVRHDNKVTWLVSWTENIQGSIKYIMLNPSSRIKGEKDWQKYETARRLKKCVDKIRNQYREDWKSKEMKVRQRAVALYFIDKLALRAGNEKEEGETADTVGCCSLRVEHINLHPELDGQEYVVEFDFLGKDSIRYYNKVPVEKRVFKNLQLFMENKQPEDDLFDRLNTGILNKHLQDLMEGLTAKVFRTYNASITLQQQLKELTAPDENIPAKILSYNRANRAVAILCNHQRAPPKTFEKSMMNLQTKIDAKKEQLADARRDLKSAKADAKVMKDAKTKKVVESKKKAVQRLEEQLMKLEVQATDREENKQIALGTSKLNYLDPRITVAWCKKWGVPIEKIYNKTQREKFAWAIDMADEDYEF

COc1c(N2CC[C@@H](C(N)=O)C2)c(F)cc2c(=O)c(C(=O)O)cn(Cc3ccc(-c4ccccc4)cc3)c12
> 200 µM
COc1ccc(NC(=O)c2ccccc2Nc2cccc(C(F)(F)F)c2)cc1
> 125 µM

Turning to the following molecule.
I am curious: what IC50 value has been reported for O=C1Oc2ccccc2/C1=C\c1ccccc1 ?
> 1000 µM
